- tested_system: HoblCSP1 (Holotrichia oblita, UniProt G9BWI4)
- Sequence (G9BWI4 entry or part of it): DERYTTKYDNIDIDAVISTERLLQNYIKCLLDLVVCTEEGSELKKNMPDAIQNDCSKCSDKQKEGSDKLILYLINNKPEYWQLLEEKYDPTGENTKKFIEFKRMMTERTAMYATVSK
- experiment: Fluorescence competition assay with 1-NPN, recombinant HoblCSP1
- Type: binding
- test_parameters: competition assay

compound: COC(=O)c1ccccc1C(=O)OC [dimererhyl phthalate]
binding affinity to HoblCSP1, in words: higher affinities
//
compound: CCOC(=O)CN
binding affinity to HoblCSP1, in words: limited affinities
//
compound: COC(=O)c1ccccc1O [methyl salicylate]
binding affinity to HoblCSP1, in words: higher affinities
//
compound: CC[C@H](C)[C@H](N)C(=O)OC
binding affinity to HoblCSP1, in words: limited affinities

====

- tested_system: HoblCSP1 (Holotrichia oblita, UniProt G9BWI4)
- experiment: Fluorescence competition assay with 1-NPN, recombinant HoblCSP1
- Format: binding
- test_parameters: read-out: HoblCSP1 Ki; competition with 1-NPN; 2 µM protein; ligand 0–28 µM; Ki calculated from IC50; 3 measurements

molecule: CC/C=C\CCO [cis-3-hexen-1-ol]
tested_system: HoblCSP1 (Holotrichia oblita, UniProt G9BWI4)
units_of_measure: µM
Ki: 46.9

====

- tested_system: HoblCSP1 (Holotrichia oblita)
- experiment: Fluorescence competition assay with 1-NPN, recombinant HoblCSP1
- Assay type: binding
- test_parameters: competition assay
- Experimental: Fluorescence binding assay was based on method previously described by Yin et al.. Briefly, fifty compounds (Sigma-Aldrich, Germany) with chemical purities ≥97% were tested in a Lengguang 970 CRT spectrofluorimeter (Shanghai Jingmi, China). […] Binding data for each ligand was collected from 3 measurements. Figure 3 Fluorescence competition assay of the recombinant HoblCSP1 and HoblCSP2. […] Fluorescence intensities are plotted as percent of the initial fluorescence in the absence of ligands. […]

compound: CCC/C=C/C=O [trans-2-hexenal]
binding affinity to HoblCSP1, in words: medium affinities
//
compound: O=C/C=C/c1ccccc1
binding affinity to HoblCSP1, in words: highest affinities
//
compound: CC(=O)/C=C/C1C(C)=CCCC1(C)C (stereo not shown)
binding affinity to HoblCSP1, in words: highest affinities
//
compound: O=Cc1ccccc1
binding affinity to HoblCSP1, in words: medium affinities
//
compound: CC(C)=CCC/C(C)=C/CO
binding affinity to HoblCSP1, in words: medium affinities

====

- tested_system: HoblCSP1 (Holotrichia oblita)
- experiment: Fluorescence competition assay with 1-NPN, recombinant HoblCSP1
- Format: binding
- test_parameters: competition with 1-NPN; 2 µM protein; ligand 0–28 µM; Ki calculated from IC50; 3 measurements; read-out: HoblCSP1 Ki
- Experimental: Fluorescence binding assay was based on method previously described by Yin et al.. Briefly, fifty compounds (Sigma-Aldrich, Germany) with chemical purities ≥97% were tested in a Lengguang 970 CRT spectrofluorimeter (Shanghai Jingmi, China). […] Binding data for each ligand was collected from 3 measurements. Figure 3 Fluorescence competition assay of the recombinant HoblCSP1 and HoblCSP2. […] Fluorescence intensities are plotted as percent of the initial fluorescence in the absence of ligands. […]
pKi: −log10 of the molar value.

molecule: CCOC(=O)CN
tested_system: HoblCSP1 (Holotrichia oblita)
pKi: 4.36
//
molecule: C=CC(O)CCCCC (stereo not drawn)
tested_system: HoblCSP1 (Holotrichia oblita)
pKi: 4.32
//
molecule: COc1ccccc1
tested_system: HoblCSP1 (Holotrichia oblita)
pKi: 4.55
//
molecule: C=CC(=C)CCC=C(C)C
tested_system: HoblCSP1 (Holotrichia oblita)
pKi: 4.60
//
molecule: CC(C)(C)C1CCC(O)CC1 (stereo not drawn)
tested_system: HoblCSP1 (Holotrichia oblita)
pKi: 4.46
//
molecule: CCCCC(CC)CO (stereo not drawn)
tested_system: HoblCSP1 (Holotrichia oblita)
pKi: 4.53
//
molecule: CC1=CC[C@@H](C(C)(C)O)CC1
tested_system: HoblCSP1 (Holotrichia oblita)
pKi: 4.33
//
molecule: C=C1C2CCC(C2)C1(C)C (stereo not drawn)
tested_system: HoblCSP1 (Holotrichia oblita)
pKi: 4.42
//
molecule: CCCCCCCCO
tested_system: HoblCSP1 (Holotrichia oblita)
pKi: 4.45
//
molecule: COC(=O)[C@@H]1CCCN1
tested_system: HoblCSP1 (Holotrichia oblita)
pKi: 4.24
//
molecule: CCCCCCO
tested_system: HoblCSP1 (Holotrichia oblita)
pKi: 4.24
//
molecule: COC(=O)c1ccccc1C(=O)OC [dimererhyl phthalate]
tested_system: HoblCSP1 (Holotrichia oblita)
pKi: 4.65

====

- tested_system: HoblCSP2 (Holotrichia oblita)
- experiment: Fluorescence competition assay with 1-NPN, recombinant HoblCSP2
- Format: binding
- test_parameters: competition assay

molecule: COC(=O)[C@@H]1CCCN1
binding affinity to HoblCSP2, in words: limited affinities
--
molecule: O=C/C=C/c1ccccc1
binding affinity to HoblCSP2, in words: highest affinities
--
molecule: CC(=O)/C=C/C1C(C)=CCCC1(C)C (stereo not drawn)
binding affinity to HoblCSP2, in words: highest affinities
--
molecule: CC(=O)CCC=C(C)C
binding affinity to HoblCSP2, in words: higher affinities
--
molecule: O=Cc1ccccc1
binding affinity to HoblCSP2, in words: medium affinities
--
molecule: CC[C@H](C)[C@H](N)C(=O)OC
binding affinity to HoblCSP2, in words: limited affinities
--
molecule: CC(C)=CCC/C(C)=C/CO
binding affinity to HoblCSP2, in words: medium affinities
--
molecule: C=CC(=C)CCC=C(C)C
binding affinity to HoblCSP2, in words: medium affinities
--
molecule: CCC/C=C/C=O [trans-2-hexenal]
binding affinity to HoblCSP2, in words: medium affinities
--
molecule: CC/C=C\CCO [cis-3-hexen-1-ol]
binding affinity to HoblCSP2, in words: higher affinities
--
molecule: CCOC(=O)CN
binding affinity to HoblCSP2, in words: limited affinities

====

- tested_system: HoblCSP2 (Holotrichia oblita, UniProt G9BWQ6)
- Sequence (G9BWQ6 entry or part of it): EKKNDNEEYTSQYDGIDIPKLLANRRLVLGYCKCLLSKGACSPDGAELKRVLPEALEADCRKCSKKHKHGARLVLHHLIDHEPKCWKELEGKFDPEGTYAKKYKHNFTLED
- experiment: Fluorescence competition assay with 1-NPN, recombinant HoblCSP2
- Format: binding
- test_parameters: competition with 1-NPN; 2 µM protein; ligand 0–28 µM; Ki calculated from IC50; 3 measurements; read-out: HoblCSP2 Ki
reported_metric: Ki (µM)

compound: CCCCCCO
units_of_measure: µM
numeric_value: 60.5
--
compound: CC1=CC[C@@H](C(C)(C)O)CC1
units_of_measure: µM
numeric_value: 39.4
--
compound: CCOC(=O)CN
units_of_measure: µM
numeric_value: 39.5
--
compound: CCCCCCCCO
units_of_measure: µM
numeric_value: 40.6
--
compound: C=CC(=C)CCC=C(C)C
units_of_measure: µM
numeric_value: 29.5
--
compound: COc1ccccc1
units_of_measure: µM
numeric_value: 29.5
--
compound: CC(C)(C)C1CCC(O)CC1 (centres unmarked)
units_of_measure: µM
numeric_value: 50.7
--
compound: CCCCC(CC)CO (centres unmarked)
units_of_measure: µM
numeric_value: 32.1

====

- tested_system: HoblCSP1 (Holotrichia oblita)
- experiment: Fluorescence competition assay with 1-NPN, recombinant HoblCSP1
- Assay type: binding
pKi: −log10 of the molar value.
Reported pKi by item:

compound: CC(C)=CCC/C(C)=C/CO
pKi: 4.53

compound: OCc1ccccc1
pKi: 4.46

compound: COC(=O)c1ccccc1O [methyl salicylate]
pKi: 4.32

compound: O=Cc1ccccc1
pKi: 4.63

compound: CC(=O)/C=C/C1C(C)=CCCC1(C)C (stereo not drawn)
pKi: 4.98

compound: CCC/C=C/C=O [trans-2-hexenal]
pKi: 4.60

compound: CC(=O)/C=C/C1=C(C)CCCC1(C)C
pKi: 5.37

compound: O=C/C=C/c1ccccc1
pKi: 4.69

compound: C=CCc1ccc(O)c(OC)c1
pKi: 4.52

====

- tested_system: HoblCSP2 (Holotrichia oblita, UniProt G9BWQ6)
- experiment: Fluorescence competition assay with 1-NPN, recombinant HoblCSP2
- Assay type: binding
reported_metric: Ki (µM)

compound: OCc1ccccc1
tested_system: HoblCSP2 (Holotrichia oblita, UniProt G9BWQ6)
numeric_value: 54.8
//
compound: CCC/C=C/C=O [trans-2-hexenal]
tested_system: HoblCSP2 (Holotrichia oblita, UniProt G9BWQ6)
numeric_value: 25.7
//
compound: CC(C)=CCC/C(C)=C/CO
tested_system: HoblCSP2 (Holotrichia oblita, UniProt G9BWQ6)
numeric_value: 30.2
//
compound: CC(=O)CCC=C(C)C
tested_system: HoblCSP2 (Holotrichia oblita, UniProt G9BWQ6)
numeric_value: 56.9
//
compound: O=Cc1ccccc1
tested_system: HoblCSP2 (Holotrichia oblita, UniProt G9BWQ6)
numeric_value: 19.5
//
compound: CC(=O)/C=C/C1C(C)=CCCC1(C)C (centres unmarked)
tested_system: HoblCSP2 (Holotrichia oblita, UniProt G9BWQ6)
numeric_value: 11.5
//
compound: O=C/C=C/c1ccccc1
tested_system: HoblCSP2 (Holotrichia oblita, UniProt G9BWQ6)
numeric_value: 17.5
//
compound: CC(=O)/C=C/C1=C(C)CCCC1(C)C
tested_system: HoblCSP2 (Holotrichia oblita, UniProt G9BWQ6)
numeric_value: 4.47

FYI, the data here is from paper PMC4154846.
